- System: HIV-1 F227L + V106A
- Experiment: microbe, parasite or virus in culture
- Format: cell-based
- Measurement parameters: selectivity index, ratio of CC50/EC50
SI F227L + V106A below 200 gives Condition not met; SI F227L + V106A at or above it gives Condition met.

Answered cases to consult:
Cc1cc(C)c(Oc2nc(NC3CCN(Cc4ccc(S(N)(=O)=O)cc4)CC3)nc3c2SCCC3)c(C)c1 [23i] | Condition met
Cc1cc(C#N)cc(C)c1Oc1nc(Nc2ccc(C#N)cc2)nc2c1S(=O)(=O)CCC2 [compound 16b] | Condition met
Cc1cc(C#N)cc(C)c1Oc1nc(NC2CCN(Cc3ccc(N)cc3)CC2)nc2c1SCCC2 [23f] | Condition not met
Cc1cc(/C=C/C#N)cc(C)c1Oc1nc(Nc2ccc(C#N)cc2)nc2c1SCCC2 [15b] | Condition not met
Cc1cc(/C=C/C#N)cc(C)c1Oc1nc(NC2CCN(Cc3ccc(S(N)(=O)=O)cc3)CC2)nc2c1SCCC2 [compound 23h] | Condition met

Inquiry: I'd appreciate it if you could say whether Cc1cc(C#N)cc(C)c1Oc1nc(NC2CCN(c3cccc(C(N)=O)c3)CC2)nc2c1SCCC2 [27b] has SI F227L + V106A at least equal to 200.
Reply text: Condition not met

Inquiry: One more molecule: Cc1cc(C#N)cc(C)c1Oc1nc(Nc2ccc(C#N)cc2)nc2c1SCCC2 [compound 15a]
Reply text: Condition not met

* * *

- System: HIV-1 L100I
- Experiment: microbe, parasite or virus in culture
- Type: cell-based
- Measurement parameters: resistance fold, EC50 (mutant strain)/EC50 (WT strain)
Entries and their RF L100I values follow.
Lab note: jot down the number only; don't add units.

The cases that follow already have their RF L100I on record.
Cc1cc(C#N)cc(C)c1Oc1nc(NC2CCN(Cc3ccc(N)cc3)CC2)nc2c1SCCC2 [23f] | 7.9
Cc1cc(/C=C/C#N)cc(C)c1Oc1nc(Nc2ccc(C#N)cc2)nc2c1SCCC2 [15b] | 2.3

Inquiry: So what RF L100I did Cc1cc(/C=C/C#N)cc(C)c1Nc1ccnc(Nc2ccc(C#N)cc2)n1 [RPV, rilpivirine, reference compound] get with HIV-1 L100I?
Reply text: 1.5

Inquiry: One more molecule: Cc1cc(C)c(Oc2nc(NC3CCN(Cc4ccc(S(N)(=O)=O)cc4)CC3)nc3c2SCCC3)c(C)c1 [23i]
Reply text: 7.2

Inquiry: One more molecule: Cc1cc(C#N)cc(C)c1Oc1nc(Nc2ccc(C#N)cc2)nc2c1SCCC2 [compound 15a]
Reply text: 4.9

Inquiry: One more molecule: Cc1cc(/C=C/C#N)cc(C)c1Oc1nc(NC2CCN(Cc3ccc(S(N)(=O)=O)cc3)CC2)nc2c1SCCC2 [compound 23h]
Reply text: 1.3

* * *

- System: HIV-1 WT strain (IIIB)
- Experiment: Anti-HIV-1 activity in MT-4 cells, MTT method, WT strain IIIB
- Type: cell-based
- Measurement parameters: Human immunodeficiency virus 1, IIIB, MT4, read-out: EC50 IIIB
Parameter: EC50 (nM)
Expressed in nM, but write only the number.

The cases that follow already have their EC50 on record.
Cc1cc(C#N)cc(C)c1Oc1nc(NC2CCN(c3cccc(C#N)c3)CC2)nc2c1SCCC2 [compound 27a] | 10.2
Cc1cc(C#N)cc(C)c1Oc1nc(NC2CCN(Cc3ccc(N)cc3)CC2)nc2c1SCCC2 [23f] | 7
Cc1cc(C#N)cc(C)c1Oc1nc(NC2CCN(Cc3ccccc3C#N)CC2)nc2c1SCCC2 [23c] | 7.1

Now for the compound whose EC50 we want.
Inquiry: EC50 lookup needed for CCOC(=O)c1ccc(CN2CCC(Nc3nc4c(c(Oc5c(C)cc(C#N)cc5C)n3)SCCC4)CC2)cc1 [23e] , thanks.
Reply text: 14.8
